- assayExplanation: in vivo
- conditionsUsed: male, SD, rat, plasma, po, 50 mg/kg, Blood tamoxifen AUC0-t, 8th administration
Structures can show the parent of a compound that is named as a salt.

| compound | AUC(0-t) [ng·h/mL] |
| --- | --- |
| CC/C(=C(\c1ccccc1)c1ccc(OCCN(C)C)cc1)c1ccccc1 [Tamoxifen, Tamoxifen citrate] | 12400 |

---

- assayExplanation: in vivo
- conditionsUsed: male, SD, rat, plasma, oral, Blood Tmax of tamoxifen, 8th administration
Structures can show the parent of a compound that is named as a salt.

| compound | Tmax / h |
| --- | --- |
| CC/C(=C(\c1ccccc1)c1ccc(OCCN(C)C)cc1)c1ccccc1 [Tamoxifen, Tamoxifen citrate] | 3.4 |

---

- assayExplanation: in vivo
- conditionsUsed: male, SD, rat, plasma, po, 50 mg/kg
Where a name gives a salt, the structure may show the parent alone.

| compound | half-life |
| --- | --- |
| CC/C(=C(\c1ccccc1)c1ccc(OCCN(C)C)cc1)c1ccccc1 [Tamoxifen, Tamoxifen citrate] | 9.56 h |

---

- assayExplanation: in vivo
- conditionsUsed: male, SD, rat, plasma, oral, Blood Cmax of tamoxifen, 8th administration
Structures can show the parent of a compound that is named as a salt.
readoutType: Cmax

| compound | readoutType | measValue |
| --- | --- | --- |
| CC/C(=C(\c1ccccc1)c1ccc(OCCN(C)C)cc1)c1ccccc1 [Tamoxifen, Tamoxifen citrate] | Cmax | 770 ng/mL |

---

- assayExplanation: in vivo
- conditionsUsed: male, SD, rat, plasma, po, 50 mg/kg
readoutType: AUC(0-inf) (ng·h/mL)

| entrySmiles | measValue |
| --- | --- |
| COc1cc2ncnc(Nc3ccc(F)c(Cl)c3)c2cc1OCCCN1CCOCC1 | 16400 |

---

- assayExplanation: in vivo
- conditionsUsed: male, SD, rat, plasma, po, 50 mg/kg, AUC0-t of gefitinib, first gefitinib administration
readoutType: AUC(0-t) (ng·h/mL)

| molecule | readoutType | measValue |
| --- | --- | --- |
| COc1cc2ncnc(Nc3ccc(F)c(Cl)c3)c2cc1OCCCN1CCOCC1 [Gefitinib] | AUC(0-t) | 15400 |

---

- assayExplanation: in vivo
- conditionsUsed: male, SD, rat, plasma, po, 50 mg/kg
readoutType: AUC(0-t) (ng·h/mL)

| entrySmiles | valueUnits | measValue |
| --- | --- | --- |
| COc1cc2ncnc(Nc3ccc(F)c(Cl)c3)c2cc1OCCCN1CCOCC1 | ng·h/mL | 14600 |

---

- assayExplanation: in vivo
- conditionsUsed: male, SD, rat, plasma, oral, Blood Cmax of tamoxifen, first tamoxifen administration
Structures can show the parent of a compound that is named as a salt.
readoutType: Cmax (ng/mL)

| molecule | readoutType | valueUnits | measValue |
| --- | --- | --- | --- |
| CC/C(=C(\c1ccccc1)c1ccc(OCCN(C)C)cc1)c1ccccc1 [Tamoxifen, Tamoxifen citrate] | Cmax | ng/mL | 280 |

---

- assayExplanation: in vivo
- conditionsUsed: male, SD, rat, plasma, po, 50 mg/kg, MRTinf of gefitinib, 9th administration
readoutType: MRT inf (h)

| entrySmiles | valueUnits | measValue |
| --- | --- | --- |
| COc1cc2ncnc(Nc3ccc(F)c(Cl)c3)c2cc1OCCCN1CCOCC1 | h | 5.71 |

Entry source: patent US11065294B2
